Assay: Water retention property test 1
Type: physicochemical
Settings: 80 wt % aqueous solution; 24 hours at 40° C. and 25% RH
OBSERVED PROPERTY: Water retention property test 1 Rate of reduction in moisture (%)

compound="C[N+](C)(CCO)CC(O)CO.[Cl-] (centres unmarked)" recorded_number=8.3
compound="O=C1OC(C(O)CO)C(O)=C1O.OCCNCCO (centres unmarked)" recorded_number=4.1
compound=CC[N+](C)(C)CCO.CS(=O)(=O)[O-] recorded_number=2.0
compound="CC(O)C(=O)O.NCCO (centres unmarked)" recorded_number=3.5
compound=C[N+](C)(C)CCO.O=C([O-])CO recorded_number=3.0
compound="CC(C)(C)CO [Compound C43]" recorded_number=4.4
compound="NCCO.O=C1OC(C(O)CO)C(O)=C1O (centres unmarked)" recorded_number=2.3
compound=CS(=O)(=O)[O-].C[N+](C)(C)CCO recorded_number=2.2
compound=C[N+](C)(C)CCO.O=C([O-])C=CC(=O)O recorded_number=5.5
compound="O=C1OC(C(O)CO)C(O)=C1O.OCCN(CCO)CCO (centres unmarked)" recorded_number=4.4
compound=CC(CO)CO recorded_number=2.5

Recorded values, source patent US20250090437A1.
